- test name: Plasma protein binding (Centrifree ultrafiltration)
- Format: in vitro ADME
- experimental setup: 10.0 uM
Positions of bridges follow the written chain, without caps; N, C: chain ends. Non-standard residues stand in square brackets, D forms with d. Residues, ends and D or L forms follow the SMILES beside them. dPhe(4-Br) = N[C@H](Cc1ccc(Br)cc1)C(=O)O; Nle = CCCC[C@H](N)C(=O)O; dAbu = CC[C@@H](N)C(=O)O; Aib = CC(C)(N)C(=O)O

compound: CC(=O)N[C@@H](CCCNC(=N)N)C(=O)N[C@H]1CSSC[C@@H](C(N)=O)NC(=O)[C@@H](Cc2c[nH]c3ccccc23)NC(=O)[C@H](CCCNC(=N)N)NC(=O)[C@@H](Cc2ccc(Br)cc2)NC(=O)[C@H](CCCNC(=N)N)NC(=O)C(C)(C)NC1=O [CTX-1246] (Ac-RC[Aib]R[dPhe(4-Br)]R[dW]C-NH2; disulfide 2-8 (inferred))
fraction unbound at 5 min, 10 µM: 0.57
//
compound: CC[C@H]1NC(=O)[C@@H](NC(=O)[C@H](CCCNC(=N)N)NC(C)=O)CSSC[C@@H](C(N)=O)NC(=O)[C@@H](Cc2c[nH]c3ccccc23)NC(=O)[C@H](CCCNC(=N)N)NC(=O)[C@@H](Cc2ccc(Br)cc2)NC(=O)[C@H](CCCNC(=N)N)NC1=O [CTX-1247] (Ac-RC[dAbu]R[dPhe(4-Br)]R[dW]C-NH2; disulfide 2-8 (inferred))
fraction unbound at 5 min, 10 µM: 0.47
//
compound: CC(=O)N[C@@H](CCCNC(=N)N)C(=O)N[C@H]1CSSC[C@@H](C(N)=O)NC(=O)[C@H](Cc2c[nH]c3ccccc23)NC(=O)[C@H](CCCNC(=N)N)NC(=O)[C@@H](Cc2ccccc2)NC(=O)[C@H](CCCNC(N)=O)NC(=O)[C@@H](C)NC1=O
fraction unbound at 5 min, 10 µM: 0.59
//
compound: COc1ccc(C[C@H]2NC(=O)[C@H](CCCNC(=N)N)NC(=O)[C@@H](C)NC(=O)[C@@H](NC(=O)[C@H](CCCNC(=N)N)NC(C)=O)CSSC[C@@H](C(N)=O)NC(=O)[C@@H](Cc3c[nH]c4ccccc34)NC(=O)[C@H](CCCNC(=N)N)NC2=O)cc1 [CTX-1238] (Ac-RC[dA]R[dY](Me)R[dW]C-NH2; disulfide 2-8 (inferred))
fraction unbound at 5 min, 10 µM: 0.59
//
compound: CCCC[C@H](NC(=O)[C@H](CCCNC(=N)N)NC(C)=O)C(=O)N[C@H]1CSSC[C@@H](C(N)=O)NC(=O)[C@H](Cc2c[nH]c3ccccc23)NC(=O)[C@H](CCCNC(=N)N)NC(=O)[C@@H](Cc2ccccc2)NC(=O)[C@H](CCCNC(=N)N)NC1=O [CTX-1228, Arg-Nle-cyclo(Cys-Arg-D-Phe-Arg-Trp-Cys)] (Ac-R[Nle]CR[dF]RWC-NH2; disulfide 3-8 (inferred))
fraction unbound at 5 min, 10 µM: 0.61
//
compound: CC(=O)N[C@@H](CCCNC(=N)N)C(=O)N[C@H]1CSSC[C@@H](C(N)=O)NC(=O)[C@H](Cc2ccccc2)NC(=O)[C@H](CCCNC(=N)N)NC(=O)[C@@H](Cc2ccc(Br)cc2)NC(=O)[C@H](CCCNC(=N)N)NC(=O)[C@@H](C)NC1=O [CTX-1258] (Ac-RC[dA]R[dPhe(4-Br)]RFC-NH2; disulfide 2-8)
fraction unbound at 5 min, 10 µM: 0.5
//
compound: CC(=O)N[C@@H](CCCN=C(N)N)C(=O)N[C@H]1CSSC[C@H](C(N)=O)NC(=O)[C@H](Cc2c[nH]c3ccccc23)NC(=O)C(CCCN=C(N)N)NC(=O)[C@@H](Cc2ccccc2)NC(=O)[C@H](Cc2cnc[nH]2)NC(=O)[C@@H](C)NC1=O (stereo partly shown) [CTX-1200, reference compound]
fraction unbound at 5 min, 10 µM: 0.39
